Target: Probable G-protein coupled receptor 139 (Homo sapiens)
Experiment: Agonist activity at human GPR139 expressed in CHO-K1 cells assessed as induction of beta-arrestin 2 recruitment incubated for 90 mins by PathHunter assay
Format: cell-based
pEC50: −log10 of the molar value.
Reported pEC50 by item:

| Compound | pEC50 |
| --- | --- |
| C[C@H](NC(=O)Cn1nc2cc(N3CCN(C)CC3)ccn2c1=O)c1ccc(OC(F)(F)F)cc1 | ≤ 7.00 |
| Cc1ccc([C@H](C)NC(=O)Cn2nc3ncccn3c2=O)cc1Cl | ≤ 7.00 |
| CC(C(=O)N[C@@H](C)c1ccc(Cl)c(F)c1)n1nc2ncccn2c1=O (stereo in doubt; form 1) | ≤ 7.00 |

Need pEC50, item C[C@H](NC(=O)Cn1nc2ccccn2c1=O)c1ccc(-c2ccccc2)cc1
≤ 7.00

// pEC50 lookup, key: Cc1cc(Cl)ccc1[C@H](C)NC(=O)Cn1nc2ncccn2c1=O
≤ 7.00

Record request: pEC50 value, item Cc1ccc([C@H](C)NC(=O)C(C)n2nc3ccccn3c2=O)cc1 (stereo in doubt; form 2)
≤ 7.00

Would you kindly share the measured pEC50 for COc1ccc2nn(CC(=O)N[C@@H](C)c3ccc(Cl)cc3)c(=O)n2n1 ?
> 9.00

Value lookup for pEC50; key = COc1ccc2nn(CC(=O)N[C@@H](C)c3ccc(Cl)c(F)c3)c(=O)n2n1
> 9.00

Need pEC50 of C[C@H](NC(=O)Cn1nc2ncccn2c1=O)c1ccc(Cl)c(F)c1 , thanks.
≤ 7.00

====

Molecular target: Probable G-protein coupled receptor 139 (Homo sapiens)
Experiment: Agonist activity at human GPR139 expressed in CHO-K1 cells assessed as induction of beta-arrestin 2 recruitment incubated for 90 mins by PathHunter assay
Format: cell-based
Endpoint name: EC50

Use these answered entries as a reference point.
| Compound | EC50 |
| --- | --- |
| COc1cccn2c(=O)n(CC(=O)N[C@@H](C)c3ccc(C)cc3)nc12 | < 1 nM |
| Cc1cnn2c(=O)n(CC(=O)N[C@@H](C)c3ccc(Cl)c(F)c3)nc2c1 | ≥ 100 nM |

# next compound below
Notebook: pull reported EC50 for Probable G-protein coupled receptor 139 (Homo sapiens), entry CC(C(=O)N[C@@H](C)c1ccc(Cl)c(F)c1)n1nc2ccccn2c1=O (stereo in doubt; form 1)
< 1 nM

====

Biological target: Probable G-protein coupled receptor 139 (Homo sapiens, UniProt Q6DWJ6)
Sequence (Q6DWJ6 whole entry): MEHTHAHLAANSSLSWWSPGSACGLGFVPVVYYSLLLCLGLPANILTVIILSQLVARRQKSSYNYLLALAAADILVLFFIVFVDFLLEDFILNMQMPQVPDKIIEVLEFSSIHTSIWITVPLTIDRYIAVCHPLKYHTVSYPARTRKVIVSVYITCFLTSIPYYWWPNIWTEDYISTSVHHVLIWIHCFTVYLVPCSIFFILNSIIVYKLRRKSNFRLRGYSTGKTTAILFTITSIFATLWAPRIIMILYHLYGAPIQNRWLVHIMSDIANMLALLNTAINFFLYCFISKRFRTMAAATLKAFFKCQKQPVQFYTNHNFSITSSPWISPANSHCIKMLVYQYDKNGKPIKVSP
Assay: Agonist activity at human GPR139 expressed in CHO-K1 cells assessed as induction of beta-arrestin 2 recruitment incubated for 90 mins by PathHunter assay
Type: cell-based
Conditions: cho-k1
pEC50: −log10 of the molar value.
Endpoint name: pEC50

| Smiles data | pEC50 |
| --- | --- |
| C[C@H](NC(=O)Cn1nc2cccnn2c1=O)c1ccc(Cl)c(F)c1 | 8.00 |
| C[C@H](NC(=O)Cn1nc2ccccn2c1=O)c1ccc(C(F)(F)F)cc1 | 8.00 |

I. Cc1ccc([C@H](C)NC(=O)Cn2nc3ccc(C)cn3c2=O)cc1
II. C[C@H](NC(=O)Cn1nc2cccnn2c1=O)c1ccc(OC(F)(F)F)c(F)c1
Just tell me: smaller pEC50 value, I or II ? Provide the label of your selected option as the answer.
II

====

Emax overview
Target: Probable G-protein coupled receptor 139 (Homo sapiens)
Sequence (whole entry): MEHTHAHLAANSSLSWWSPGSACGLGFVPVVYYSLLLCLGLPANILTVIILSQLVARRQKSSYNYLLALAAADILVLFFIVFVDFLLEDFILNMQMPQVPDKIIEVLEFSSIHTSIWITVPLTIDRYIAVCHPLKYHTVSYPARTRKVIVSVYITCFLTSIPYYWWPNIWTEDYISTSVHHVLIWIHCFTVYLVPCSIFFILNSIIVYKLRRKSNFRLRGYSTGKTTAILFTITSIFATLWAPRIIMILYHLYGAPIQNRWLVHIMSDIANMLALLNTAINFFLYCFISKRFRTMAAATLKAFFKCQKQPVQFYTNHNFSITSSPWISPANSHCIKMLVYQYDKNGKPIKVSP
Experiment: Agonist activity at human GPR139 expressed in CHO-K1 cells assessed as increase in calcium flux by calcium 5 dye based FLIPR assay relative to JNJ63533054
Assay type: functional, cell-based
Settings: filed as agonist

Recorded Emax, per entry:
| Molecule | Emax |
| --- | --- |
| Cc1ccc([C@@H](C)NC(=O)Cn2nc3ccccn3c2=O)cc1 | 50% |
| COc1ccc2nn(CC(=O)N[C@@H](C)c3ccc(Cl)cc3)c(=O)n2n1 | > 80% |
| C[C@H](NC(=O)Cn1nc2cc(I)ccn2c1=O)c1ccc(Cl)c(F)c1 | > 80% |
| C[C@H](NC(=O)Cn1nc2ccc(F)cn2c1=O)c1ccc(Cl)c(F)c1 | > 80% |
| C[C@H](NC(=O)Cn1nc2cccnn2c1=O)c1ccc(Cl)c(F)c1 | > 80% |

Record C[C@H](NC(=O)Cn1nc2cccc(N3CCCCC3)n2c1=O)c1ccc(OC(F)(F)F)cc1 : what is its Emax with Probable G-protein coupled receptor 139 (Homo sapiens)?
50%

# returns recorded Emax (system: Probable G-protein coupled receptor 139 (Homo sapiens)) for C[C@H](NC(=O)Cn1nc2cc(N3CCC(O)CC3)ccn2c1=O)c1ccc(OC(F)(F)F)cc1
> 80%

Record lookup: for Probable G-protein coupled receptor 139 (Homo sapiens), what Emax belongs to CC[C@H](NC(=O)Cn1nc2cccnn2c1=O)c1ccc(Cl)c(F)c1 ?
> 80%

====

Target: Probable G-protein coupled receptor 139 (Rattus norvegicus, UniProt P0C0W8)
Sequence (P0C0W8 whole entry): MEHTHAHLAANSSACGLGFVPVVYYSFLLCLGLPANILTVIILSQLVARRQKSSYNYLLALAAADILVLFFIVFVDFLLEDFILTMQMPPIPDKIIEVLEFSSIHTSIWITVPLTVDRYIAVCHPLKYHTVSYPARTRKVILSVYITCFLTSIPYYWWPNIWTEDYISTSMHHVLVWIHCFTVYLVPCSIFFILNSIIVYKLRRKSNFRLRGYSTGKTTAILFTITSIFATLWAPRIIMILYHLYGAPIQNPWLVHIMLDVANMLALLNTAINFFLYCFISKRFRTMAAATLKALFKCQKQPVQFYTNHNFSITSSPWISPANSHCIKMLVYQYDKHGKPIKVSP
Assay: Agonist activity at rat GPR139 expressed in CHO-K1 cells assessed as increase in calcium flux by calcium 5 dye based FLIPR assay
Format: cell-based
Details: cho-k1
pEC50: −log10 of the molar value.
Endpoint name: pEC50

| Molecule | pEC50 |
| --- | --- |
| Cc1cc([C@H](C)NC(=O)Cn2nc3ccccn3c2=O)ccc1Cl | 9.00 |
| C[C@H](NC(=O)Cn1nc2cnccn2c1=O)c1ccc(Cl)c(F)c1 | 9.00 |
| Cc1ccc([C@H](C)NC(=O)Cn2nc3cc(Cl)ccn3c2=O)cc1 | 9.00 |
| CC(C(=O)N[C@@H](C)c1ccc(Cl)c(F)c1)n1nc2ncccn2c1=O (stereo in doubt; form 1) | 8.00 |

A. COc1cccc2nn(CC(=O)N[C@@H](C)c3ccc(OC(F)(F)F)cc3)c(=O)n12
B. C[C@H](NC(=O)Cn1nc2ncc(C3CC3)cn2c1=O)c1ccc(Cl)c(F)c1
Select one. Lower pEC50: A or B Your answer should be the label attached to the chosen record.
B
(B: 8.00, A: 9.00)

a. COc1ccn2c(=O)n(CC(=O)N[C@@H](C)c3ccc(C)cc3)nc2n1
b. Cc1ccc([C@H](C)NC(=O)Cn2nc3ncccn3c2=O)cc1Cl
From the items above, decide which of a and b has the lower pEC50 reading. Please reply using the label of the selected record.
b
(b: 8.00, a: 9.00)

a. Cc1ccc([C@H](C)NC(=O)Cn2nc3ncccn3c2=O)cc1F
b. C[C@H](NC(=O)Cn1nc2c(N3CCC34CNC4)cccn2c1=O)c1ccc(Cl)c(F)c1
Compare a and b by numeric pEC50 and name the larger one. Respond using the label that marks the chosen record.
a
(a: 9.00, b: 8.00)

a. C[C@H](NC(=O)Cn1nc2cc(Cl)cnn2c1=O)c1ccc(Cl)c(F)c1
b. C[C@H](NC(=O)Cn1nc2c(I)ccnn2c1=O)c1ccc(OC(F)(F)F)cc1
Sorting ascending by pEC50, which comes first: a or b ? State your choice using its label.
b
